# Read-out: Macrophage colony-stimulating factor (MCSF), CSF1 (gene 1435)
# Measurement Notes: BSK_LPS_MCSF: BioMAP Diversity Plus: LPS Assay for Macrophage colony-stimulating factor (MCSF) Biomarker Activity (AID 2283083)
# Cond: primary human HUVEC with PBMC; actives raise or lower the signal
The source made the active and inactive calls. How the source made its calls: active means hit-call score of the fitted dose curve at least 0.9, where 1 is the maximum; inactive means score below 0.9.
Measurement Name: AC50

// worked examples, AC50 included
{"Compound": "Oc1cc(Cl)c(Cl)cc1Cl", "AC50": "20 µM (active)"}
{"Compound": "c1ccc2sc(SNC3CCCCC3)nc2c1", "AC50": "inactive"}
{"Compound": "OCCCCO", "AC50": "inactive"}
{"Compound": "OC(Cc1ccccc1Cl)(Cn1cncn1)C1(Cl)CC1 (stereo unspecified)", "AC50": "inactive"}
{"Compound": "CN(C)C(=S)S", "AC50": "inactive"}

Then this compound:
Indicate the recorded AC50 value for this compound: `CC(C)(C)c1ccccc1O`
inactive

====

# Measurement Notes: BSK_LPS_SRB: Viability Assessment in the BioMAP Diversity Plus: LPS Assay (AID 2283079);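 further: total protein by sulforhodamine B absorbance as a cytotoxicity measure; measured one day after compound addition; fitted in both directions against DMSO so loss or gain of signal counts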
# Cond: primary human HUVEC with PBMC
Calls of active or inactive are those of the source. How the source made its calls: active means hit-call score of the fitted dose curve at least 0.9, where 1 is the maximum; inactive means score below 0.9.
Parameter call: string, one of active, inactive

Query: recorded result category for `CCOP(=O)(OCC)SCCSCC` in this test
inactive

Query: recorded result category for `Cc1c([N+](=O)[O-])c(C)c([N+](=O)[O-])c(C(C)(C)C)c1[N+](=O)[O-]` in this test
inactive

Query: recorded result category for CC(C=O)Cc1ccc2c(c1)OCO2 (centres undefined) in this test
inactive

Query: recorded result category for `NC(=O)CCl` in this test
inactive

Query: recorded result category for `Cc1cc(Cl)ccc1N` in this test
inactive

Query: recorded result category for `Cc1ccc(OP(=O)(Oc2ccc(C)cc2C)Oc2ccc(C)cc2C)c(C)c1` in this test
inactive

Query: recorded result category for `CCCCOC(=O)COC(=O)c1ccccc1C(=O)OCCCC` in this test
inactive

Query: recorded result category for N#CCCC(Br)(C#N)CBr (centres undefined) in this test
active

Query: recorded result category for Cc1cc(Cl)ccc1OC(C)C(=O)O (centres undefined) in this test
inactive

====

# Measurement Notes: ATG_PXRE_CIS: Attagene CIS-FACTORIAL HepG2 Assay for human Pregnane X Receptor Element (PXRE) (AID 2282957)
# Cond: HepG2 Attagene CIS-FACTORIAL PXRE reporter, mRNA; actives raise or lower the signal
# Protocol: ATG_CIS is a cell-based, multiplexed-readout assay that uses HepG2, a human liver cell line, with measurements taken at 24 hours after chemical dosing in a 24-well plate.ATG_PXRE_CIS is one of 52 assay component(s) measured or calculated from the ATG_CIS assay. […] This assay endpoint, ATG_PXRE_CIS, was analyzed with bidirectional fitting relative to DMSO as the negative control and baseline of activity. […]
Activity calls are given as the source filed them. How the source made its calls: active means hit-call score of the fitted dose curve at least 0.9, where 1 is the maximum; inactive means score below 0.9.
Parameter call: string, one of active, inactive

Query: recorded result category for `O=NN1CCCCCCC1` in this test
active

Query: recorded result category for C=CC(Cl)CCl (stereo unspecified) in this test
active

Query: recorded result category for `Clc1ccc(C(Cl)(Cl)Cl)cn1` in this test
active

Query: recorded result category for Cc1cc(Cl)ccc1OC(C)C(=O)O (stereo unspecified) in this test
inactive

Query: recorded result category for `FC(F)OCC(F)(F)C(F)(F)F` in this test
inactive

Query: recorded result category for `O=S(=O)(c1ccc(Cl)cc1)c1cc(Cl)c(Cl)cc1Cl` in this test
active

Query: recorded result category for `CC(=O)CN(CC(C)=O)N=O` in this test
inactive

Query: recorded result category for `Cc1cc(-c2cc(C)c(N)c(C)c2)cc(C)c1N` in this test
active

Query: recorded result category for `COP(=S)(OC)Oc1cc(Cl)c(I)cc1Cl` in this test
active

Query: recorded result category for `O=S(=O)(F)C(F)(F)C(F)(F)C(F)(F)C(F)(F)F` in this test
inactive

Query: recorded result category for `Brc1ccc(Br)cc1` in this test
inactive

Query: recorded result category for `[F][Sn]([c]1ccccc1)([c]1ccccc1)[c]1ccccc1` in this test
active

Query: recorded result category for `ClCc1ccccc1Cl` in this test
active

Query: recorded result category for `NC(=O)c1ccc(N)nc1` in this test
inactive

Query: recorded result category for `CCCCCCCCCCCCOS(=O)(=O)O` in this test
inactive

Query: recorded result category for `CNC(=O)N(C)c1nc2ccccc2s1` in this test
active

Query: recorded result category for `CN(C)C(=S)S` in this test
active

Query: recorded result category for `Cc1ccc(OP(=O)(Oc2ccc(C)cc2C)Oc2ccc(C)cc2C)c(C)c1` in this test
active

Query: recorded result category for CCCSP(=S)(OCC)Oc1ccc(SC)cc1 (stereo unspecified) in this test
active

Query: recorded result category for `COc1ccc(N)cc1` in this test
inactive

Query: recorded result category for `CCN(N=O)C(N)=O` in this test
inactive

====

# Measurement Notes: ATG_E_Box_CIS: Attagene CIS-FACTORIAL HepG2 Assay for human Enhancer Box (E-box) (AID 2282936)
# Cond: HepG2 E-box cis-reporter transcription, actives raise or lower the signal
Active and inactive are the calls of the source. How the source made its calls: active means hit-call score of the fitted dose curve at least 0.9, where 1 is the maximum; inactive means score below 0.9.
Parameter call: string, one of active, inactive

Query: recorded result category for `O=C(O)c1cc(I)cc(I)c1I` in this test
inactive

Query: recorded result category for `CC(C)N(C(=O)CCl)c1ccccc1` in this test
active

Query: recorded result category for `CCCCOC(=O)COC(=O)c1ccccc1C(=O)OCCCC` in this test
inactive

Query: recorded result category for `C=CC(=O)OCC(COC(=O)C=C)(COC(=O)C=C)COC(=O)C=C` in this test
active

Query: recorded result category for CC(C)[C@@H](Nc1ccc(C(F)(F)F)cc1Cl)C(=O)OC(C#N)c1cccc(Oc2ccccc2)c1 (stereo not given in full) in this test
inactive

Query: recorded result category for `C=C(C)[C@@H]1CC=C(C=O)CC1` in this test
inactive

Query: recorded result category for CC(C)(COCC1CO1)COCC1CO1 (stereo not given) in this test
inactive

Query: recorded result category for CCC(C)(C#N)N=NC(C)(C#N)CC (stereo not given) in this test
inactive

Query: recorded result category for `Cc1cc(-c2cc(C)c(N)c(C)c2)cc(C)c1N` in this test
inactive

Query: recorded result category for Cc1cc(Cl)ccc1OC(C)C(=O)O (stereo not given) in this test
inactive

Query: recorded result category for `CC[N+](CC)(CC)CC` in this test
inactive

Query: recorded result category for CCCCC(CC)COC(=O)Cl (stereo not given) in this test
inactive

Query: recorded result category for CC(C=O)Cc1ccc2c(c1)OCO2 (stereo not given) in this test
inactive

Query: recorded result category for `O=S(=O)(F)C(F)(F)C(F)(F)C(F)(F)C(F)(F)F` in this test
inactive

Query: recorded result category for `CC(=O)C(F)(F)C(F)(F)F` in this test
inactive

Query: recorded result category for `C[C@@H]1O[C@@H](O[C@H]2C[C@@H](O)[C@]3(CO)[C@H]4[C@H](O)C[C@]5(C)[C@@H](C6=CC(=O)OC6)CC[C@]5(O)[C@@H]4CC[C@]3(O)C2)[C@H](O)[C@H](O)[C@H]1O` in this test
inactive

Query: recorded result category for `Cc1cc(Cl)ccc1N` in this test
inactive

Query: recorded result category for `c1ccc2sc(SNC3CCCCC3)nc2c1` in this test
inactive

Query: recorded result category for `CN(N=O)C(N)=O` in this test
inactive

Query: recorded result category for `Clc1ccc(C(Cl)(Cl)Cl)cn1` in this test
inactive

Query: recorded result category for `Cc1ccc(CCl)cc1` in this test
inactive

Query: recorded result category for N#CCCC(Br)(C#N)CBr (stereo not given) in this test
active

Query: recorded result category for `Cc1cccc(OP(=O)(Oc2cccc(C)c2)Oc2cccc(C)c2)c1` in this test
inactive

Query: recorded result category for O=S1OC[C@@H]2[C@H](CO1)[C@]1(Cl)C(Cl)=C(Cl)[C@@]2(Cl)C1(Cl)Cl (stereo not given in full) in this test
inactive

Query: recorded result category for `Clc1cccc(Cl)c1` in this test
inactive

====

# Measurement Notes: ATG_TCF_b_cat_CIS: Attagene CIS-FACTORIAL HepG2 Assay for human T-Cell-Factor with beta-catenin (TCF/b-cat) (AID 2282965)
# Cond: HepG2 TCF/beta-catenin cis-reporter transcription, actives raise or lower the signal
Active and inactive are the calls of the source. The calls were made as follows: active = hit-call score of the fitted dose curve at least 0.9, where 1 is the maximum; inactive = score below 0.9.
Parameter call: string, one of yes (1) for active, no (0) for inactive

Query: recorded result category for `O=c1[nH]c(=O)n(Cl)c(=O)n1Cl` in this test
no (0)

Query: recorded result category for `O=C(Cc1ccccc1)OCCc1ccccc1` in this test
no (0)

Query: recorded result category for `CC1(C)[C@H](C(=O)O[C@H](C#N)c2cccc(Oc3ccccc3)c2)[C@@H]1/C=C(\Cl)C(F)(F)F` in this test
no (0)

Query: recorded result category for `Cc1cccc(C)c1NC(=O)CN1CCCC1=O` in this test
no (0)

Query: recorded result category for `CCCCCCCCCCCCBr` in this test
no (0)

Query: recorded result category for `COC(=O)c1cc(Oc2ccc(Cl)cc2Cl)ccc1[N+](=O)[O-]` in this test
no (0)

Query: recorded result category for `CCN(CC)C(=O)C(Cl)=C(C)OP(=O)(OC)OC` in this test
no (0)

Query: recorded result category for `CCC[CH2][Sn]([Cl])([Cl])[CH2]CCC` in this test
yes (1)

Query: recorded result category for `C[CH2][Hg][S]c1ccccc1C(=O)O` in this test
yes (1)

Query: recorded result category for `O=[N+]([O-])c1cc([As](=O)(O)O)ccc1O` in this test
no (0)

Query: recorded result category for `BrCCCCBr` in this test
no (0)

Query: recorded result category for `Oc1ccc(Cc2ccc(O)cc2)cc1` in this test
no (0)

Query: recorded result category for `O=C(Cl)OCCOCCOC(=O)Cl` in this test
no (0)

Query: recorded result category for `CNC(=O)O/N=C/C(C)(C)S(C)(=O)=O` in this test
no (0)

Query: recorded result category for C=C(C)C(=O)OCC(CC)CCCC (stereo not given) in this test
no (0)

Query: recorded result category for `CCCCCCCCCCCCN(C)C` in this test
yes (1)

Query: recorded result category for `CCCCCCCCCCCCOS(=O)(=O)O` in this test
no (0)

Query: recorded result category for O=C(NC(=O)c1c(F)cccc1F)Nc1cc(Cl)c(OC(F)(F)C(F)C(F)(F)F)cc1Cl (stereo not given) in this test
no (0)

Query: recorded result category for `N#CS` in this test
no (0)

Query: recorded result category for CC1CC(=O)O1 (stereo not given) in this test
no (0)

Query: recorded result category for `CCCCN(CCCC)C(=S)S` in this test
yes (1)

Query: recorded result category for `O=C(CCl)Nc1ccccc1` in this test
no (0)

Query: recorded result category for `CCOP(=O)(OCC)SCCSCC` in this test
no (0)

Query: recorded result category for `C[C@]12CC[C@@H](O)C[C@@H]1CC[C@@H]1[C@@H]2CC[C@]2(C)C(=O)CC[C@@H]12` in this test
no (0)

Query: recorded result category for `CCNc1nc(NCC)nc(SC)n1` in this test
no (0)

Query: recorded result category for `CCOC(=O)CC(=O)CCl` in this test
no (0)

Query: recorded result category for `[F][Sn]([c]1ccccc1)([c]1ccccc1)[c]1ccccc1` in this test
no (0)

Query: recorded result category for `Cc1cc(C(F)(C(F)(F)F)C(F)(F)F)ccc1NC(=O)c1cccc(I)c1C(=O)NC(C)(C)CS(C)(=O)=O` in this test
no (0)

Query: recorded result category for `CCOc1ccc(N)cc1` in this test
no (0)

Query: recorded result category for `C=CCOC(N)=O` in this test
no (0)

Query: recorded result category for `NC(=O)c1ccc(N)nc1` in this test
no (0)

Query: recorded result category for Cc1cc(Cl)ccc1OC(C)C(=O)O (stereo not given) in this test
no (0)

Query: recorded result category for `C[N+](C)(C)Cc1ccccc1` in this test
no (0)

Query: recorded result category for `CCOP(=S)(OCC)O/N=C(\C#N)c1ccccc1` in this test
no (0)

Query: recorded result category for `Cc1cccc(N=Nc2ccc(N(C)C)cc2)c1` in this test
no (0)

Query: recorded result category for `Cc1c([N+](=O)[O-])c(C)c([N+](=O)[O-])c(C(C)(C)C)c1[N+](=O)[O-]` in this test
no (0)

Query: recorded result category for BrCC(Br)c1ccccc1 (stereo not given) in this test
no (0)

Query: recorded result category for `CCCCN(CCCC)C(=S)[S-].CCCCN(CCCC)C(=S)[S-].[Ni+2]` in this test
no (0)

Query: recorded result category for `COC(=O)Nc1cccc(OC(=O)Nc2cccc(C)c2)c1` in this test
no (0)

Query: recorded result category for `Nc1cccnc1` in this test
no (0)
